The entries below come with measured TGI values attached.
- System: 786-0 renal
- procedure_summary: NCI tumour cell line growth inhibition, 48 h

# molecule, TGI
measured = [
    ("Cc1ccc2c(c1)[nH]c(=S)n2/C=C1\\C(=O)Oc2ccccc2C1=O", "> 100 µM"),
    ("COc1cc2c(c(O)c1OC)-c1c(cc(OC)c(OC)c1OC)CC(C)C(C)C2 (stereo unspecified)", "> 100 µM"),
    ("Oc1c(C(Nc2cccc3cccnc23)c2ccccc2)ccc2cccnc12 (stereo unspecified)", "> 100 µM"),
    ("CCCCOC(=O)C1C2CCC(O2)C1C(=O)OCCCC (stereo unspecified)", "> 60.9 µM"),
    ("C[N+](C)(C)CC(=O)N/N=C/c1oc(-c2c(O)ccc3ccccc23)c(-c2c(O)ccc3ccccc23)c1[N+](=O)[O-]", "44.3 µM"),
    ("CC(CCN)(CCN)[N+](=O)[O-]", "> 100 µM"),
    ("COc1ccc(C(=O)OC2C(OC3C(O)COC(O[C@H]4C[C@H]5[C@@H]6CC=C7C[C@@H](O)CC[C@]7(C)[C@H]6CC[C@]5(C)[C@H]4[C@H](C)C(=O)CCC(C)C)C3OC(N)=O)OCC(O)C2O)cc1 (stereo partly specified)", "3.13 µM"),
    ("COc1ccc(-c2cc(=O)[nH]c3c(OC)c4ccccc4c(OC)c23)cc1", "> 100 µM"),
    ("C/C(CC(=O)Nc1ccc([N+](=O)[O-])cc1)=N\\NC(N)=O", "> 100 µM"),
    ("O=[N+]([O-])/C(C(Cl)=C(Cl)Cl)=C(\\N1CCOCC1)n1nnc2ccccc21", "44.8 µM"),
    ("O=[N+]([O-])c1cc(C(F)(F)F)cc([N+](=O)[O-])c1CCl", "8.21 µM"),
]

====

- Test system: UACC-62 melanoma
- procedure_summary: NCI tumour cell line growth inhibition, 48 h
The entries below come with measured TGI values attached.

# chemical_smiles, TGI
records = [
    ("O=[N+]([O-])O.[Cu+2].[NH-]CC[NH-].[NH-]CC[NH-]", "> 10 µM"),
    ("CN(O)c1nc(N(C)O)nc(N2CCOCC2)n1", "> 100 µM"),
    ("CCSc1[nH]c(NC(=S)NC(=O)c2ccccc2Cl)c(C(N)=O)c1C(N)=O", "> 10 µM"),
]

====

The entries below come with measured TGI values attached.
- System: PC-3 prostate
- procedure_summary: NCI tumour cell line growth inhibition, 48 h
value_type: TGI (µM)

# molecule, value_type, qualifier_operator, experimental_value
records = [
    ("CCc1c2c([nH]c(=S)c1C#N)CCC2", "TGI", ">", 100),
    ("O=C(ON=C1c2ccccc2C(Br)C(Br)c2ccccc21)c1cc([N+](=O)[O-])cc([N+](=O)[O-])c1 (stereo unspecified)", "TGI", ">", 73.5),
    ("CCOc1cc(NC(C)=O)ccc1C(=O)NN1C(=O)C(Cl)C1c1ccccc1 (stereo unspecified)", "TGI", "=", 27.8),
    ("CC1=NN(C(=O)c2ccccc2O)C(=O)/C1=C/c1ccco1", "TGI", "=", 46),
    ("COc1ccc(-c2nc(-c3nc4ccc(OC)cc4[nH]3)c3ccccn23)cc1", "TGI", "=", 32.2),
    ("C1=NCCN2CCN(CCN=Cc3ccc(cc3)OCc3cccc(n3)COc3ccc1cc3)CC2", "TGI", ">", 50),
]
